Target system: soybean lipoxygenase-1 (sLO-1) (Glycine max, UniProt P08170)
Sequence (P08170 whole entry): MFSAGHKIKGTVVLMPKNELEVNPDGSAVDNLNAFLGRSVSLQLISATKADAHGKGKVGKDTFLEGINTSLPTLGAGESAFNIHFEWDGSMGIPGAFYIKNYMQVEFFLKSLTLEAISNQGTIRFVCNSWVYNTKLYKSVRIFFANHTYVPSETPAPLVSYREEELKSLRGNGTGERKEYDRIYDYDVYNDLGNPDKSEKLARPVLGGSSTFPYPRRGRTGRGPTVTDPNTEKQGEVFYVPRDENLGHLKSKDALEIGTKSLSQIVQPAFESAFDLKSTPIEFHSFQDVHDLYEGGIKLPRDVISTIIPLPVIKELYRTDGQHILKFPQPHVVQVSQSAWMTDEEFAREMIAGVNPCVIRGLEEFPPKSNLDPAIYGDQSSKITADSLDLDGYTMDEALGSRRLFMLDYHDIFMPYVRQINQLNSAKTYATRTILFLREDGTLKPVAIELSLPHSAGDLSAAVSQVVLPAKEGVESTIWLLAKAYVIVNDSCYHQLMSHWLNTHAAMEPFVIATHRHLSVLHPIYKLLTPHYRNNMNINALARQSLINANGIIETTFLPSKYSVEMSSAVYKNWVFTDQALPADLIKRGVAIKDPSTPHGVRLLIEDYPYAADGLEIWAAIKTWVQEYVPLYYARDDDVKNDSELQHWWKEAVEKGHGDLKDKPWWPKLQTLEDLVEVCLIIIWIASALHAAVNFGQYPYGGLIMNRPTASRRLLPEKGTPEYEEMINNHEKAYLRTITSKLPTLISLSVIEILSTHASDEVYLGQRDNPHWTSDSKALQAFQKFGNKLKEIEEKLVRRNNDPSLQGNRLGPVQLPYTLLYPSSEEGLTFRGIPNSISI
Test method notes: IC50 assay of sLO-1 with PS, OS and OA inhibitors, LA as substrate
Type: biochemical
Counter-ions that a name gives are not always drawn.
Below, each entry is listed with its recorded pIC50.
# pIC50 = -log10(concentration in molar units)

>>> number("CCCCCCCC/C=C\\CCCCCCCC(=O)O")
4.96

// next item, pIC50 requested
Short answer on soybean lipoxygenase-1 (sLO-1) (Glycine max, UniProt P08170) for CCCCCCCC/C=C\CCCCCCCCOS(=O)(=O)O [OS, oleyl sulfate] , pIC50: 6.00

Recorded values, source paper PMC2737062.
